B1: glmS ribozyme (parent)
chain: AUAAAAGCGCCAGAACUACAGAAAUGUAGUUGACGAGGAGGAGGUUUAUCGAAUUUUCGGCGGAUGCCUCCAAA

variants of: B1; assay: self-cleavage kobs at 640 uM GlcN6P; higher = faster cleavage; RNA array; conditions: with glucosamine-6-phosphate
Variants at the floor of the assay were thinned out.
Listed variants paired with reported self-cleavage kobs at 640 uM GlcN6P
Just the number please, in s⁻¹, no unit attached.

**Q:** Look up self-cleavage kobs at 640 uM GlcN6P for this variant: A15U U65G
**A:** 0.00036

**Q:** Look up self-cleavage kobs at 640 uM GlcN6P for this variant: G13C U55A U69A
**A:** 0.00022

**Q:** Look up self-cleavage kobs at 640 uM GlcN6P for this variant: A14U A39U
**A:** 0.00161

**Q:** Look up self-cleavage kobs at 640 uM GlcN6P for this variant: G32U U69G
**A:** 0.000345

**Q:** Look up self-cleavage kobs at 640 uM GlcN6P for this variant: G29U U31A
**A:** 0.000947

Next:
**Q:** Look up self-cleavage kobs at 640 uM GlcN6P for this variant: G37C U45A
**A:** 2.56e-05

**Q:** Look up self-cleavage kobs at 640 uM GlcN6P for this variant: A36C G51U C70G
**A:** 0.000181

**Q:** Look up self-cleavage kobs at 640 uM GlcN6P for this variant: U54A
**A:** 0.0124

**Q:** Look up self-cleavage kobs at 640 uM GlcN6P for this variant: C16U U47A A53G U54A
**A:** 0.00231

**Q:** Look up self-cleavage kobs at 640 uM GlcN6P for this variant: A15G G44A
**A:** 0.000152
